- system-under-test: human Esterase Plasma (ES), BCHE (gene 590)
- assay-comment: NVS_ENZ_hES: NovaScreen (NVS) Enzymatic Assay for human Esterase Plasma (ES) (AID 2283157)
Inconclusive results are not listed. Active and inactive are the calls of the source. Rule for the calls: active = hit-call score of the fitted dose curve at least 0.9, where 1 is the maximum; inconclusive = response in the unintended direction; inactive = score below 0.9.
Select the matching outcome among class 1 = active, class 0 = inactive

// known answers, use as guide
Cc1c2ccccc2c(C)c2c1ccc1ccccc12: class 0
Cc1occc1C(=O)Nc1ccc(C(=O)N2CCC(F)(F)/C(=C\C(=O)N3CCC(N4CCCCC4)CC3)c3ccccc32)cc1: class 0
COc1ccc2cc(S(=O)(=O)N[C@H](CC(=O)N[C@H](Cc3ccc(CN4[C@H](C)CCC[C@@H]4C)cc3)C(=O)N(C)C(C)C)c3ccc4c(c3)OCO4)ccc2c1: class 1
Oc1ccc2ccccc2c1: class 0

Request: // param item: "CCCCOC(=O)c1ccc(O)cc1" ; yields the recorded call
Result: class 0
